Examples of compounds with documented IC50 follow.
test system: MYB mRNA; experiment: Splicing RT-qPCR assay, MYB canonical (CJ) and alternative (AJ) junction mRNA; format: cell-based, human; details: Homo sapiens, 24 h, A673 or K562 cells, 24 hours compound treatment, RT-qPCR; read-out: MYB CJ (IC50, decrease in canonical junction mRNA)

[
  {
    "Compound": "Cc1cn2cc(NC(=O)c3ccc(C4CCNCC4)c4c3OCC4)cc(F)c2n1",
    "IC50": "1000 to 10000 nM"
  },
  {
    "Compound": "CN[C@@H]1CCN(c2ccc(C(=O)Nc3cn4cc(C)nc4c(OC4CC4)n3)c3nn(C)cc23)C1",
    "IC50": "100 to 1000 nM"
  },
  {
    "Compound": "Cc1cn2cc(-c3ccc(C(=O)NC4CCNCC4)c4nn(C)cc34)cc(F)c2n1",
    "IC50": "> 10000 nM"
  },
  {
    "Compound": "Cc1cn2cc(NC(=O)c3ccc(N4CCNCC4)c4cn(C)nc34)cc(C)c2n1",
    "IC50": "100 to 1000 nM"
  },
  {
    "Compound": "Cc1cn2cc(NC(=O)c3ccc(N4CCNCC4)c4cn(C)nc34)c(=O)n(C)c2n1",
    "IC50": "1000 to 10000 nM"
  },
  {
    "Compound": "Cc1cn2cc(NC(=O)c3ccc(N4C[C@H]5CC[C@@H](C4)N5)c4cn(C)nc34)cc(F)c2n1",
    "IC50": "< 100 nM"
  },
  {
    "Compound": "Cc1cn2cc(NC(=O)c3ccc(N4CCNCC4)c4cn(CC5CCO5)nc34)cc(F)c2n1 (stereo not shown)",
    "IC50": "100 to 1000 nM"
  },
  {
    "Compound": "Cc1cn2cc(NC(=O)c3ccc(N4CCNCC4)c4cn(Cc5ccncc5)nc34)cc(F)c2n1",
    "IC50": "1000 to 10000 nM"
  },
  {
    "Compound": "Cc1cn2cc(NC(=O)c3ccc(N4CC[C@@H](NC5C6COCC65)C4)c4cn(C)nc34)cc(F)c2n1 (stereo partly shown)",
    "IC50": "100 to 1000 nM"
  },
  {
    "Compound": "CCn1cc2c(N(C)C3C[C@H]4CC[C@@H](C3)N4)ccc(C(=O)Nc3cc(F)c4nc(C)cn4c3)c2n1 (stereo partly shown)",
    "IC50": "1000 to 10000 nM"
  },
  {
    "Compound": "Cc1cn2cc(NC(=O)c3ccc(N4CCN[C@H](C5CC5)C4)c4cn(C)nc34)cc(F)c2n1",
    "IC50": "100 to 1000 nM"
  },
  {
    "Compound": "Cc1cn2cc(NC(=O)c3ccc(N4CC[C@@H](NC5(CF)CC5)C4)c4cn(C)nc34)cc(F)c2n1",
    "IC50": "< 100 nM"
  },
  {
    "Compound": "Cc1nc2c(F)cc(NC(=O)c3ccc(N4CCNCC4)c4cn(C)nc34)cc2[nH]1",
    "IC50": "1000 to 10000 nM"
  },
  {
    "Compound": "CCn1cc2c(N3C[C@@H](C)N[C@@H](C)C3)ccc(C(=O)Nc3cc(F)c4nc(C)cn4c3)c2n1",
    "IC50": "100 to 1000 nM"
  },
  {
    "Compound": "Cc1cn2cc(NC(=O)c3ccc(C4CCN(C)CC4)c4cc(C)oc34)cc(F)c2n1",
    "IC50": "100 to 1000 nM"
  },
  {
    "Compound": "C=CCn1cc2c(N3CCNCC3)ccc(C(=O)Nc3cc(F)c4nc(C)cn4c3)c2n1",
    "IC50": "< 100 nM"
  },
  {
    "Compound": "COc1c(NC(=O)c2ccc(N3CCNCC3)c3cn(C)nc23)cc(C)c2nn(C)cc12",
    "IC50": "> 10000 nM"
  },
  {
    "Compound": "CCNC1CCN(c2cc(F)c(C(=O)Nc3cc(F)c4nc(C)cn4c3)c3nn(C)cc23)CC1",
    "IC50": "< 100 nM"
  },
  {
    "Compound": "CC1=NC2C=C(NC(=O)c3ccc(N(C)C4CCN(C)CC4)c4cn(C)nc34)C=C(F)C2=N1 (stereo not shown)",
    "IC50": "100 to 1000 nM"
  },
  {
    "Compound": "CN[C@H]1CCN(c2ccc(C(=O)Nc3cn4cc(C)nc4c(OC)n3)c3nn(C)cc23)C1",
    "IC50": "100 to 1000 nM"
  },
  {
    "Compound": "CCOc1nc(NC(=O)c2ccc(N3CCC(NC)C3)c3cn(C)nc23)cn2cc(C)nc12 (stereo not shown)",
    "IC50": "100 to 1000 nM"
  },
  {
    "Compound": "CCNC1CCN(c2ccc(C(=O)Nc3cc(F)c4nc(C)cn4c3)c3nn(CC)cc23)C1 (stereo in doubt) [Compound 399]",
    "IC50": "100 to 1000 nM"
  }
]
